assay: Cmax in ICR mouse at 10 mg/kg, po; format: ADME, organism-based; design: dose 10 mg/kg, route oral; details: in vivo

- chemical structure: "CCc1cc(NC(=O)Nc2ccc(-c3cnc(Nc4cc(N5CCN(CC)CC5)nc(C)n4)s3)cc2)no1"
  unit string: "ng/mL"
  Cmax: 168

---

tested on: Receptor-type tyrosine-protein kinase FLT3 (Homo sapiens), P36888 [UNDEFINED MUTATION]; settings: MOLM-13
Sequence (P36888 whole entry, looked up, change not shown): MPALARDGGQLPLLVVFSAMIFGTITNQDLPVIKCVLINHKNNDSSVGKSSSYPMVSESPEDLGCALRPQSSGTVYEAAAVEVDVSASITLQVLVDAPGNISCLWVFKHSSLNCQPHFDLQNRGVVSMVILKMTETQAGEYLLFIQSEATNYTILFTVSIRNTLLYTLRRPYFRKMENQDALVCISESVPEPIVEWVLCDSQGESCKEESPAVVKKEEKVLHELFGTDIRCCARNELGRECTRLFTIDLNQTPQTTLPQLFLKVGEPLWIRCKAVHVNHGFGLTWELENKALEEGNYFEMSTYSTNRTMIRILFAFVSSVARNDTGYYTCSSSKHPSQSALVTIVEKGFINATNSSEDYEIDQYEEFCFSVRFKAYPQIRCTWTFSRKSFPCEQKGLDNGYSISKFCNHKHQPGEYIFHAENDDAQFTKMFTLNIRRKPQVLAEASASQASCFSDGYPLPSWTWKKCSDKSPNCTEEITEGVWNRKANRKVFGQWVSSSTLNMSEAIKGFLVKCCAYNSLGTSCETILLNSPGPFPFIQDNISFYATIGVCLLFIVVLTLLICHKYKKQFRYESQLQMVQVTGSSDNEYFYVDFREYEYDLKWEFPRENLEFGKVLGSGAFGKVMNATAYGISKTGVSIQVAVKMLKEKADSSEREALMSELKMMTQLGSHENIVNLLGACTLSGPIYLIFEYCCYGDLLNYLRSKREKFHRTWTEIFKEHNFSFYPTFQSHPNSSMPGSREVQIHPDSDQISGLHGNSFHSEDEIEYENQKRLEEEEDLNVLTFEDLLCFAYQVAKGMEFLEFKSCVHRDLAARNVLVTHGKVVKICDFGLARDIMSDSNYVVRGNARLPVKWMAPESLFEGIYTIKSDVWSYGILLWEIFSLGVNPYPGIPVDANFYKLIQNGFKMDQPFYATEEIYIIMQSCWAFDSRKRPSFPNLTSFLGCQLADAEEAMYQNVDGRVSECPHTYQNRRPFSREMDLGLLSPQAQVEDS
Description: Inhibition of FLT3 ITD heterozygous mutant in human MOLM-13 cells assessed as cell growth inhibition after 72 hrs by MTS assay
endpoint label: GI50 (nM)

- compound: "CCc1cc(NC(=O)Nc2ccc(-c3cnc(Nc4cc(N5CCC(N)C5)nc(C)n4)s3)cc2)no1 (stereo not drawn)"
  endpoint label: "GI50"
  unit string: "nM"
  value: 3
- compound: "CCCCc1cc(NC(=O)Nc2ccc(-c3cnc(Nc4cc(N5CCN(C)CC5)nc(C)n4)s3)cc2)no1"
  endpoint label: "GI50"
  unit string: "nM"
  value: 14
- compound: "Cc1nc(Nc2ncc(-c3ccc(NC(=O)Nc4cccc(Cl)c4)cc3)s2)cc(N2CCNCC2)n1"
  endpoint label: "GI50"
  unit string: "nM"
  value: 24
- compound: "Cc1nc(Nc2ncc(-c3ccc(NC(=O)Nc4cc(C)on4)cc3)s2)cc(N2CCN(C)CC2)n1"
  endpoint label: "GI50"
  unit string: "nM"
  value: 1
- compound: "CCc1cc(NC(=O)Nc2ccc(-c3cnc(Nc4cc(N5CCN(CC)CC5)nc(C)n4)s3)cc2)no1"
  endpoint label: "GI50"
  unit string: "nM"
  value: 2
- compound: "CCN1CCN(c2cc(Nc3ncc(-c4ccc(NC(=O)Nc5ccc(Cl)cc5)cc4)s3)nc(C)n2)CC1"
  endpoint label: "GI50"
  unit string: "nM"
  value: 9
- compound: "CCc1cc(NC(=O)Nc2ccc(-c3cnc(Nc4cc(N5CCN(C)CC5)nc(C)n4)s3)cc2)no1"
  endpoint label: "GI50"
  unit string: "nM"
  value: 3
- compound: "Cc1nc(Nc2ncc(-c3ccc(NC(=O)Nc4ccccc4)cc3)s2)cc(N2CCN(C)CC2)n1"
  endpoint label: "GI50"
  unit string: "nM"
  value: 24
